assay-details: MTS proliferation assay (72 h read-out)
Type: cell-based
recorded-conditions: MRC5 cells
Please respond with reported IC50 for every item in the list.

Worked examples, 5 compounds total:
compound: O=C(c1cc2cc(OCc3ccccc3)ccc2o1)c1cc(F)ccc1N1CCCCC1
IC50: > 1000 nM
//
compound: COc1ccc2oc(C(=O)c3cccnc3-n3ccnc3)cc2c1
IC50: > 1000 nM
//
compound: CCOc1ncccc1C(=O)c1oc2ccc(Cl)cc2c1N
IC50: < 10 nM
//
compound: CCOc1ccccc1C(=O)c1oc2ccc(NC(=O)OC(C)(C)C)cc2c1N
IC50: > 1000 nM
//
compound: CCOc1ccc(F)cc1C(=O)c1cc2cc(OC(=O)N(C)C)ccc2o1
IC50: 100 to 1000 nM

Your task in this section: give IC50 for each listed record.
1. CCOc1ccc(F)cc1C(=O)c1oc2ccc(O)cc2c1N
2. O=C(c1cc2cc(OCc3ccccc3)ccc2o1)c1cc(F)ccc1N1CCOCC1
3. COc1ccc2oc(C(=O)c3cc(F)ccc3N3CCCC(C)C3)cc2c1 (stereo not shown)
4. O=C(c1cc2cc(OCc3ccccc3)ccc2o1)c1cc(F)ccc1N1CC=CCC1
5. Nc1c(C(=O)c2cccnc2N2CCCC2)oc2ccc(Cl)cc12

< 10 nM
> 1000 nM
10 to 100 nM
> 1000 nM
> 1000 nM

Batch lookup, IC50 per entry.
1. CCNc1ncccc1C(=O)c1oc2ccc(Cl)cc2c1N
2. CCOc1ccccc1C(=O)c1oc2ccc(I)cc2c1N

1: > 1000 nM; 2: > 1000 nM
